# assay.procedure: Plasma PK of rosuvastatin and oral contraceptives with and without rucaparib (phase 1 DDI study, noncompartmental analysis)
# Type: in vivo, human
# measurement.setup: human, plasma, po, without rucaparib (day 1); single oral dose; read-out: VZ/F, Median (range)
Would you mind telling me the reported Vd/F of each entry?
Put your answer as a value accompanied by its unit after it.

Exercise: Any idea what Vd/F was measured for `CC(C)c1nc(N(C)S(C)(=O)=O)nc(-c2ccc(F)cc2)c1/C=C/[C@@H](O)C[C@@H](O)CC(=O)O` ?
Key: 3730 L

Exercise: What about `C#C[C@]1(O)CC[C@H]2[C@@H]3CCc4cc(O)ccc4[C@H]3CC[C@@]21C` ?
Key: 772 L

Exercise: What about `C#C[C@]1(O)CC[C@H]2[C@@H]3CCC4=CC(=O)CC[C@@H]4[C@H]3CC[C@@]21CC` ?
Key: 114 L

====

# assay.procedure: Plasma PK of rosuvastatin and oral contraceptives with and without rucaparib (phase 1 DDI study, noncompartmental analysis)
# Assay type: in vivo, human
# measurement.setup: human, plasma, po, without rucaparib (day 1); single oral dose; plasma; read-out: Cmax, GM (%CV)
quantity: Cmax (ng/mL)
Quick note: give the figure in ng/mL, leave out the unit.

Exercise: Any idea what Cmax was measured for `C#C[C@]1(O)CC[C@H]2[C@@H]3CCc4cc(O)ccc4[C@H]3CC[C@@]21C` ?
Key: 0.0732

Exercise: What about `C#C[C@]1(O)CC[C@H]2[C@@H]3CCC4=CC(=O)CC[C@@H]4[C@H]3CC[C@@]21CC` ?
Key: 3.17

Exercise: What about `CC(C)c1nc(N(C)S(C)(=O)=O)nc(-c2ccc(F)cc2)c1/C=C/[C@@H](O)C[C@@H](O)CC(=O)O` ?
Key: 13

====

# assay.procedure: Plasma PK of rosuvastatin and oral contraceptives with and without rucaparib (phase 1 DDI study, noncompartmental analysis)
# Format: in vivo, human
# measurement.setup: human, plasma, po, without rucaparib (day 1); single oral dose; plasma; read-out: t1/2, GM (%CV) (converted)
quantity: half-life (h)
Quick note: give the figure in h, leave out the unit.

Exercise: Any idea what half-life was measured for `C#C[C@]1(O)CC[C@H]2[C@@H]3CCc4cc(O)ccc4[C@H]3CC[C@@]21C` ?
Key: 15.9

Exercise: What about `CC(C)c1nc(N(C)S(C)(=O)=O)nc(-c2ccc(F)cc2)c1/C=C/[C@@H](O)C[C@@H](O)CC(=O)O` ?
Key: 17.5

Exercise: What about `C#C[C@]1(O)CC[C@H]2[C@@H]3CCC4=CC(=O)CC[C@@H]4[C@H]3CC[C@@]21CC` ?
Key: 38.5

====

# assay.procedure: Plasma PK of rosuvastatin and oral contraceptives with and without rucaparib (phase 1 DDI study, noncompartmental analysis)
# Type: in vivo, human
# measurement.setup: human, plasma, po, 600 mg, with rucaparib 600 mg BID (day 19); single oral dose; plasma; read-out: AUC0–inf, GM (%CV)
quantity: AUC(0-inf) (ng·h/mL)
Quick note: give the figure in ng·h/mL, leave out the unit.

Exercise: Any idea what AUC(0-inf) was measured for `CC(C)c1nc(N(C)S(C)(=O)=O)nc(-c2ccc(F)cc2)c1/C=C/[C@@H](O)C[C@@H](O)CC(=O)O` ?
Key: 210

Exercise: What about `C#C[C@]1(O)CC[C@H]2[C@@H]3CCc4cc(O)ccc4[C@H]3CC[C@@]21C` ?
Key: 1.41

Exercise: What about `C#C[C@]1(O)CC[C@H]2[C@@H]3CCC4=CC(=O)CC[C@@H]4[C@H]3CC[C@@]21CC` ?
Key: 102

====

# assay.procedure: Plasma PK of rosuvastatin and oral contraceptives with and without rucaparib (phase 1 DDI study, noncompartmental analysis)
# Type: in vivo, human
# measurement.setup: human, plasma, po, 600 mg, with rucaparib 600 mg BID (day 19); single oral dose; read-out: VZ/F, Mean (SD)
Would you mind telling me the reported Vd/F of each entry?
Put your answer as a value accompanied by its unit after it.

Exercise: Any idea what Vd/F was measured for CC(C)c1nc(N(C)S(C)(=O)=O)nc(-c2ccc(F)cc2)c1/C=C/[C@@H](O)C[C@@H](O)CC(=O)O [rosuvastatin] ?
Key: 2960 L

Exercise: What about C#C[C@]1(O)CC[C@H]2[C@@H]3CCc4cc(O)ccc4[C@H]3CC[C@@]21C [ethinylestradiol] ?
Key: 684 L

Exercise: What about C#C[C@]1(O)CC[C@H]2[C@@H]3CCC4=CC(=O)CC[C@@H]4[C@H]3CC[C@@]21CC [levonorgestrel] ?
Key: 82.8 L

====

Would you mind telling me the reported Cmax of each entry?
# assay.procedure: Plasma PK of rosuvastatin and oral contraceptives with and without rucaparib (phase 1 DDI study, noncompartmental analysis)
# Assay type: in vivo, human
# measurement.setup: human, plasma, po, without rucaparib (day 1); single oral dose; plasma; read-out: Cmax, Median (range)
Quick note: give the figure in ng/mL, leave out the unit.

Exercise: Any idea what Cmax was measured for C#C[C@]1(O)CC[C@H]2[C@@H]3CCc4cc(O)ccc4[C@H]3CC[C@@]21C [ethinylestradiol] ?
Key: 0.0734

Exercise: What about CC(C)c1nc(N(C)S(C)(=O)=O)nc(-c2ccc(F)cc2)c1/C=C/[C@@H](O)C[C@@H](O)CC(=O)O [rosuvastatin] ?
Key: 10.2

Exercise: What about C#C[C@]1(O)CC[C@H]2[C@@H]3CCC4=CC(=O)CC[C@@H]4[C@H]3CC[C@@]21CC [levonorgestrel] ?
Key: 3.29

====

# assay.procedure: Plasma PK of rosuvastatin and oral contraceptives with and without rucaparib (phase 1 DDI study, noncompartmental analysis)
# Type: in vivo, human
# measurement.setup: human, plasma, po, without rucaparib (day 1); single oral dose; plasma; read-out: AUC0–last, GM (%CV)
quantity: AUC(0-t) (ng·h/mL)
Quick note: give the figure in ng·h/mL, leave out the unit.

Exercise: Any idea what AUC(0-t) was measured for C#C[C@]1(O)CC[C@H]2[C@@H]3CCC4=CC(=O)CC[C@@H]4[C@H]3CC[C@@]21CC [levonorgestrel] ?
Key: 52.9

====

# assay.procedure: Plasma PK of rosuvastatin and oral contraceptives with and without rucaparib (phase 1 DDI study, noncompartmental analysis)
# Assay type: in vivo, human
# measurement.setup: human, plasma, po, without rucaparib (day 1); single oral dose; plasma; read-out: AUC0–last, Median (range)
Would you mind telling me the reported AUC(0-t) of each entry?
Quick note: give the figure in ng·h/mL, leave out the unit.

Exercise: Any idea what AUC(0-t) was measured for C#C[C@]1(O)CC[C@H]2[C@@H]3CCC4=CC(=O)CC[C@@H]4[C@H]3CC[C@@]21CC [levonorgestrel] ?
Key: 45.3

Exercise: What about CC(C)c1nc(N(C)S(C)(=O)=O)nc(-c2ccc(F)cc2)c1/C=C/[C@@H](O)C[C@@H](O)CC(=O)O [rosuvastatin] ?
Key: 141

Exercise: What about C#C[C@]1(O)CC[C@H]2[C@@H]3CCc4cc(O)ccc4[C@H]3CC[C@@]21C [ethinylestradiol] ?
Key: 0.775

====

# assay.procedure: Plasma PK of rosuvastatin and oral contraceptives with and without rucaparib (phase 1 DDI study, noncompartmental analysis)
# Assay type: in vivo, human
# measurement.setup: human, plasma, po, without rucaparib (day 1); single oral dose; plasma; read-out: AUC0–inf, Mean (SD)
Would you mind telling me the reported AUC(0-inf) of each entry?
Quick note: give the figure in ng·h/mL, leave out the unit.

Exercise: Any idea what AUC(0-inf) was measured for `C#C[C@]1(O)CC[C@H]2[C@@H]3CCC4=CC(=O)CC[C@@H]4[C@H]3CC[C@@]21CC` ?
Key: 72.7

Exercise: What about `C#C[C@]1(O)CC[C@H]2[C@@H]3CCc4cc(O)ccc4[C@H]3CC[C@@]21C` ?
Key: 0.994

====

# assay.procedure: Plasma PK of rosuvastatin and oral contraceptives with and without rucaparib (phase 1 DDI study, noncompartmental analysis)
# Format: in vivo, human
# measurement.setup: human, plasma, po, 600 mg, with rucaparib 600 mg BID (day 19); single oral dose; plasma; read-out: t1/2, GM (%CV) (converted)
Would you mind telling me the reported half-life of each entry?
Quick note: give the figure in h, leave out the unit.

Exercise: Any idea what half-life was measured for `C#C[C@]1(O)CC[C@H]2[C@@H]3CCC4=CC(=O)CC[C@@H]4[C@H]3CC[C@@]21CC` ?
Key: 46.6

Exercise: What about `CC(C)c1nc(N(C)S(C)(=O)=O)nc(-c2ccc(F)cc2)c1/C=C/[C@@H](O)C[C@@H](O)CC(=O)O` ?
Key: 16.6

Exercise: What about `C#C[C@]1(O)CC[C@H]2[C@@H]3CCc4cc(O)ccc4[C@H]3CC[C@@]21C` ?
Key: 24.8

====

# assay.procedure: Plasma PK of rosuvastatin and oral contraceptives with and without rucaparib (phase 1 DDI study, noncompartmental analysis)
# Format: in vivo, human
# measurement.setup: human, plasma, po, without rucaparib (day 1); single oral dose; read-out: VZ/F, Mean (SD)
Would you mind telling me the reported Vd/F of each entry?
Quick note: give the figure in L, leave out the unit.

Exercise: Any idea what Vd/F was measured for `C#C[C@]1(O)CC[C@H]2[C@@H]3CCc4cc(O)ccc4[C@H]3CC[C@@]21C` ?
Key: 792

Exercise: What about `C#C[C@]1(O)CC[C@H]2[C@@H]3CCC4=CC(=O)CC[C@@H]4[C@H]3CC[C@@]21CC` ?
Key: 113

Exercise: What about `CC(C)c1nc(N(C)S(C)(=O)=O)nc(-c2ccc(F)cc2)c1/C=C/[C@@H](O)C[C@@H](O)CC(=O)O` ?
Key: 4620
